- MEASURED ON: rat MASP2 (Rattus norvegicus)
- Construct: Ig-kappa secretion signal (N, cleaved yes); made in house; host or cells: HEK293 (ATCC No. CRL-1573)
- Sequence (Q9JJS8 296-443): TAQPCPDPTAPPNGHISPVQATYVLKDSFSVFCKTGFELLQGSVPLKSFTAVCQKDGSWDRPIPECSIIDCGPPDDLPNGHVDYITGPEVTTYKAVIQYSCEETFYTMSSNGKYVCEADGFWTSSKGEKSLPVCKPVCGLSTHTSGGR
- Sequence (Q9JJS8 444-685): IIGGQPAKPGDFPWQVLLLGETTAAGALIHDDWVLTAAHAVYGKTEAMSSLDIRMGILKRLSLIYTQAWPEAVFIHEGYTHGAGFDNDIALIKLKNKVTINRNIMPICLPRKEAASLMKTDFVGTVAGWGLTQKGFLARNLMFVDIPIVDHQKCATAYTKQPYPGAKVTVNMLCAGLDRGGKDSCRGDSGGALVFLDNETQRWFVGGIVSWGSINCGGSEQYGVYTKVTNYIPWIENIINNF
- PROTOCOL TEXT: Biochemical rat MASP2 assay (FRET substrate)
- REPORTED CONDITIONS: average IC50; recombinant rat MASP2, FRET substrate
Bridge positions count the residues as written; N and C are the ends. Square brackets hold non-standard residues; d marks the D form. Peptide text beside a SMILES is read from it. PEG9 = NCCOCCOCCOCCOCCOCCOCCOCCOCCOCCC(=O)O; tBuAla = CC(C)(C)C[C@H](N)C(=O)O; Pen = CC(C)(S)[C@H](N)C(=O)O; Sar = CNCC(=O)O
Measured IC50 by item

{"columns": ["COMPOUND", "IC50 (µM)"],
 "data": [
  ["CC[C@H](C)[C@H](NC(=O)[C@H](C)N)C(=O)N[C@H]1CSSC(C)(C)[C@@H](C(=O)N[C@H](C(=O)N2CCC[C@H]2C(=O)N[C@@H](CC(=O)O)C(N)=O)[C@@H](C)CC)NC(=O)[C@H]([C@@H](C)CC)NC(=O)[C@@H]2C[C@@H]3CCCC[C@@H]3N2C(=O)[C@@H]2CCCN2C(=O)[C@H](CC(C)C)NC(=O)[C@H](CO)NC(=O)[C@H](CCCNC(=N)N)NC(=O)[C@H](CO)NC1=O", 0.0349],
  ["CC[C@H](C)[C@H](NC(=O)CNC)C(=O)N[C@H]1CSSC(C)(C)[C@@H](C(=O)N[C@H](C(=O)N2CCC[C@H]2C(=O)NCCOCCOCCOCCOCCOCCOCCOCCOCCOCCC(N)=O)[C@@H](C)CC)NC(=O)[C@H]([C@@H](C)CC)NC(=O)[C@@H]2CCCN2C(=O)[C@@H]2CCCN2C(=O)[C@H](CC(C)(C)C)NC(=O)[C@H](CO)NC(=O)[C@H](CCCNC(=N)N)NC(=O)[C@H](CO)NC1=O [Example 44] (H-[Sar]ICSRS[tBuAla]PPI[Pen]IP[PEG9]-NH2; disulfide 3-11)", 0.035]
]}
